Below, each entry is listed alongside its reported IC50.
targetDesc: dipeptidyl peptidase-IV (DPP-IV) from porcine kidney (Sus scrofa)
Sequence (P22411 whole entry): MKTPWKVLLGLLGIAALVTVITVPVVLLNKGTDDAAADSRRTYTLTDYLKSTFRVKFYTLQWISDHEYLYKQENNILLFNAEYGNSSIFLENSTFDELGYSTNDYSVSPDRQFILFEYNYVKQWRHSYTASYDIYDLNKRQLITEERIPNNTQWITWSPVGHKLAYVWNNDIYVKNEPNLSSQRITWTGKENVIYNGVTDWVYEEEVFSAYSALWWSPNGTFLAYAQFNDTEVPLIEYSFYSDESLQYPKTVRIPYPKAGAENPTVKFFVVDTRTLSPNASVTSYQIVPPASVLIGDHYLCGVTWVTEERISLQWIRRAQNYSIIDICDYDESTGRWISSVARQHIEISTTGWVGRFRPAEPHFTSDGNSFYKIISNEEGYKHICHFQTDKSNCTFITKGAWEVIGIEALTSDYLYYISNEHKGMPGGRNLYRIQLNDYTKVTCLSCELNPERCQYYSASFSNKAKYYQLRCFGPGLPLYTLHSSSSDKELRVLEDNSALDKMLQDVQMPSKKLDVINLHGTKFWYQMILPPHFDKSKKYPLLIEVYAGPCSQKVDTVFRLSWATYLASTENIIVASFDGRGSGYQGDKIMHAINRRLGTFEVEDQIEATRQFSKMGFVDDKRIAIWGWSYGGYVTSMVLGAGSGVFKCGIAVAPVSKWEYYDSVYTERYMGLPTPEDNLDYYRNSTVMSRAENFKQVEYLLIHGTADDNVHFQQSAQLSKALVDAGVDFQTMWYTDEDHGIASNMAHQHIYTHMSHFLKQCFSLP
testMethodNotes: Dipeptidyl peptidase-IV
Assay type: biochemical
measurementName: IC50

compound	targetDesc	measurementName	measurement
COc1cc(OC)c2c(c1O)OC(c1ccccc1)CC2=O (stereo not shown) [Compound 7, 8-hydroxy-5,7-dimethoxyflavanone]	dipeptidyl peptidase-IV (DPP-IV) from porcine kidney (Sus scrofa)	IC50	> 166 µM
O=c1cc(-c2ccccc2)oc2cc(O)cc(O)c12	dipeptidyl peptidase-IV (DPP-IV) from porcine kidney (Sus scrofa)	IC50	> 197 µM
CC(C)=CCCC(C)=CCCC(C)=CCc1c[nH]c2ccccc12	dipeptidyl peptidase-IV (DPP-IV) from porcine kidney (Sus scrofa)	IC50	> 156 µM
O=C1C[C@@H](c2ccccc2)Oc2cc(O)cc(O)c21	dipeptidyl peptidase-IV (DPP-IV) from porcine kidney (Sus scrofa)	IC50	> 195 µM

Cited source for all entries: paper PMC10920384
